Tested on: PC-3 prostate
Assay: NCI-60 one-dose screen, 48 h
Details: 10 µM unless noted
This is part of a sample that, as a whole, favours compounds with a hit. Of some 83,000 tested, about 20% had one in any assay. The source made the active and inactive calls. Rule for the calls: active = growth percent below 10; inactive = the rest.
Hi there, use one of these labels in your reply, thanks! active, inactive

Task: Fill in: this test's call for O=C(N/N=C/c1ccc(-c2ccc(O)cc2)s1)c1[nH]c2ccc(Br)cc2c1-c1ccccc1 is ___
Output: active

Task: Fill in: this test's call for COc1ccc(-c2c(Nn3cnnn3)no[n+]2[O-])cc1 is ___
Output: inactive

Task: Fill in: this test's call for CN(C)c1ccnc(NCCCSC(c2ccccc2)(c2ccccc2)c2ccccc2)c1 is ___
Output: active

Task: Fill in: this test's call for O=C(NNc1ccccc1)n1c(=O)c2ccccc2c(=O)n1-c1ccccc1 is ___
Output: inactive

Task: Fill in: this test's call for C/C(=N\N=C1/C(=O)Nc2ccc(Cl)cc21)c1ccc2c(c1)Nc1ccccc1S2 is ___
Output: active
